B1: Hairpin Ribozyme (parent)
chain: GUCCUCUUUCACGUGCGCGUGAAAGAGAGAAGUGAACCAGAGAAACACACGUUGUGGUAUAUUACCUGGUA

# Variants of: B1
# assayText: self-cleavage, relative activity (ratio to wild type); higher = more cleavage; co-transcriptional
Would you mind telling me the reported self-cleavage of each entry?
Answer using only a numeral; do not append any unit.

Ask: If you can, please state the reported self-cleavage value of GUCCUUUUUCACGCGCGCGUGAAAGAGAGAAGUGAACCAGAGAAACACACGUUGUGGUAUAUUACCUGGUA [C6U U14C] .
Result: 0.932

Ask: // same read-out, input: GUCCUCUUUCACGUGUGCGUGAAAGGGAGAAGUGAACCAGAGAAACACACGUUGUGGUAUAUUACCUGGUA [C16U A26G]
Result: 0.959

Ask: Note, next up: GUCCUCUUUCACGUGCGCGUGAAAGAGAGAAGUGAACCAGAGAACCACACGCUGUGGUAUAUUACCUGGUA [A45C U52C]
Result: 0.176

Ask: Likewise for GUCCUGUUUCACGUGCGCGUGAAAGAGAGAAGUGAACCAGAGAAACACACGUUGUGGUAUAUUUCCUGGUA [C6G A64U] ?
Result: 0.105

Ask: Next: GUCCUCUUUCACGUGCCCGUGAAAGAGAGAAGUGAACCAGAGAAACACACGUUGUGGUAUAUUACCUGGCA [G17C U70C]
Result: 0.866

Ask: Continue with GUCCUCUUUCACGUGCGCGUGAAAGAGAGUAGUGAACCAGAGAAACACACGUUGUGGUAUAUUACCCGGUA [A30U U67C]
Result: 0.0825

Ask: Item: GUCCUCUUUCACGUGCGCGUGAUAGAGAGACGUGAACCAGAGAAACACACGUUGUGGUAUAUUACCUGGUA [A23U A31C]
Result: 0.147

Ask: Try GUCCUCUUUCACGUGCGCGUGAAAGAGAGAAGUGAACCAGAGAUACACACGGUGUGGUAUAUUACCUGGUA [A44U U52G] next.
Result: 0.121

Ask: Would you kindly repeat that for GUCCUCUUUCACGUGCGCGUGAAAGAGAGAAGUGAACUAGAGAAACACACGUAGUGGUAUAUUACCUGGUA [C38U U53A] ?
Result: 0.731

Ask: Follow-up item: GUCCUCUUUCACGUGCUCGUGAAAGAGAGAAGGGAACCAGAGAAACACACGUUGUGGUAUAUUACCUGGUA [G17U U33G]
Result: 0.186

Ask: Proceed to GUCCUCUUUCACGUGCGCGUGAAAGAGAGAGGUGAACCAGAGAAACACACGUUGUGGUACAUUACCUGGUA [A31G U60C]
Result: 0.836

Ask: Query GUCCUCUUUCACGUGCGCGUGAAAGAGAGAAGUGAACCAGAGAAACACACGUUGUGAUAUAUUGCCUGGUA [G57A A64G] next
Result: 0.131

Ask: Another variant: GUCCUCUUUCACGUGCGCGUGAAAUAGAGAAGUGAACAAGAGAAACACACGUUGUGGUAUAUUACCUGGUA [G25U C38A]
Result: 0.216

Ask: What do we get for GUCCUCUUUCACGUGCGCGUGAAAGAGAGAAGUGAACCAGAGAAACUCACGUUGUGGUAUAUCACCUGGUA [A47U U63C] ?
Result: 0.175

Ask: Now the same for GUCCUCUUUCACGUGCGCAUGAAAGAGAGAAGUGAACCAGAGAAACACACGUGGUGGUAUAUUACCUGGUA [G19A U53G]
Result: 0.691

Ask: Do the same for GUCCUCUUGCACGUGCGCGUGAAAGAGAGAAGUGAACCAGAGAAACACACGUUGUGGUAUAUUACCUGUUA [U9G G69U] please
Result: 0.111

Ask: Try the variant GUCCUCUUUCACGCGCGCGUGAAAGAGAGAAGUGAACCAGAGAAACAAACGUUGUGGUAUAUUACCUGGUA [U14C C48A]
Result: 0.256

Ask: // repeat for GUCCUCUUUCACGUGCGCGUGAAAGAGAGAAGUGAACCUGAGAAACACACGUCGUGGUAUAUUACCUGGUA [A39U U53C] and report
Result: 0.508

Ask: Record: GUCCUCUUUCACGUGCGCGUGACAGAGAGAAGUGAACCAGAGAAACACACGUUGUGGUAUAUUACCGGGUA [A23C U67G]
Result: 0.27

Ask: // same read-out, input: GUCCUCUUUCACGUGCGCGUAAAAGAGAGAAGUGAACCAGAGAAACACACGUUGUGGUAUAUUACCUGGUC [G21A A71C]
Result: 1.23

Ask: Entry to check: GUCCUCUUUCACGUGCGCGUGAAAGAGAGAAGUGAACUAGAGAAACACAAGUUGUGGUAUAUUACCUGGUA [C38U C50A]
Result: 0.207

Ask: Entry to check: GCCCUCUUUCACGUGCCCGUGAAAGAGAGAAGUGAACCAGAGAAACACACGUUGUGGUAUAUUACCUGGUA [U2C G17C]
Result: 0.168

Ask: Consider next the variant GUCCUCUUUCACGUACGCGUGAAAGAGAGAAGUGAACCAGAGAAACACACGUUGUGGUAUAUUACCUUGUA [G15A G68U] in the same way.
Result: 0.232

Ask: Next up: GUCCUCUUUCACGUGCGCGUGAAAUAGAGAAGUGAACCAGAGCAACACACGUUGUGGUAUAUUACCUGGUA [G25U A43C]
Result: 0.166

Ask: Now the same for GUCCUCUUUCACGUGCGCGUGAAAGAGAGAAGUGCACCAGAGAAACACAGGUUGUGGUAUAUUACCUGGUA [A35C C50G]
Result: 0.37

Ask: // next record GUCCCCUUUCACGUGCGCGUGAAAGAGAGAAGUGAACCAGAGAAACACACGUUGUGGUAUCUUACCUGGUA [U5C A61C]
Result: 0.128

Ask: Next variant up: GUCCUUUUUCACGUGCGCGUGAAAGAGAGAAGUCAACCAGAGAAACACACGUUGUGGUAUAUUACCUGGUA [C6U G34C]
Result: 1.1

Ask: Please do the same for GUCCUCUAUCACGUGCGCGUGAAAGAGAGAAGUGAACCAGAGAAACACACGUUGUGGUAUAUUACUUGGUA [U8A C66U] as well.
Result: 0.238

Ask: Try this variant too: GUCCUCUUUCACGUGCGCGUGAAAGAGAGAAGUGAACCAGAGAAACAUACGUUGUGGUAUAUUACCUGCUA [C48U G69C]
Result: 0.124

Ask: And for GUCCUCUUUCACGUGCGCGUGAAAGAGAGAAGUGAAGCAGAGAAACACACGUUGUGGUAUAUUACCUGGCA [C37G U70C] ?
Result: 0.531

Ask: Input GUCCUCUUUCACGUGCGCGGGAAAGAGAGAAGUGAACCAGAGAAACACACGUUGUGGUCUAUUACCUGGUA [U20G A59C]
Result: 0.313

Ask: Also check GUCCUCUUUCACGUGCGCGUGAAAGAGAGAAGUGAACCAGAGAAACCCACGUUGUUGUAUAUUACCUGGUA [A47C G56U]
Result: 0.149

Ask: Ok, now GUCCUCUUCCACGUGCGCGUGAAAGAGAGAAGUGAACCAGAGAAACACACGUUGUGGUAUAUUACCUGCUA [U9C G69C]
Result: 0.136

Ask: Further, for GUCCUCUUUCACGUGCGCGUGAAAGAGAGAAGUGAACCAGACAAACACACGUUGUGGUAUAUUACCUGGUU [G42C A71U] ?
Result: 0.142

Ask: Follow-up entry: GUCCUCUUUCACGUGCGCGUGAAAGAGAGAAGCGAACCAGAGAAACACACGUUGUGGCAUAUUACCUGGUA [U33C U58C]
Result: 0.169

Ask: And the next one, GUCCUCUUUCACGUGCGCGUGAAAUAGAGAAGUGAACCAGAGAAACACACGUUGUGGUAUAUUACAUGGUA [G25U C66A] ?
Result: 0.182

Ask: Same read-out for GUCCUCUUUCACGUGCGCGUGAAAGAGAGAAGUGGACCAGAGAAACACCCGUUGUGGUAUAUUACCUGGUA [A35G A49C] ?
Result: 0.12

Ask: Now consider GUCCUCUUUCACGUGCGCGUGAAAGAGAGAAGUGAACCAGAGAAACACACGUUGUGGUAUAUUUCCUGAUA [A64U G69A] .
Result: 0.115

Hello, the source for this data is the RNAGym collection of RNA variant scans (doi:10.7554/elife.80360), in case you need it.
